Provenance of the data: PubChem BioAssay (NCI)

# Tested on: CCRF-CEM leukemia
# Protocol summary: NCI-60 one-dose screen, 48 h
# Test conditions: 10 µM unless noted
Compounds without any hit were thinned out: in the full panel of roughly 83,000, 20% have a hit. Calls of active or inactive are those of the source. Rule for the calls: active = growth percent below 10; inactive = the rest.
Outcome codes: active, inactive

molecule=CC(=O)Nc1ccc2c(c1)/C(=C\C=C/c1ccc([N+](C)(C)C)cc1)c1ccccc1-2 assigned_category=inactive
molecule="COc1cc(/C=C2\\CCCC3=C2NC(C)=NC3c2cc(OC)c(OC)c(OC)c2)cc(OC)c1OC (stereo not drawn)" assigned_category=active
molecule=Cc1ccc2nc(SCn3nnc4ccccc4c3=O)[nH]c2c1 assigned_category=inactive
molecule=Cc1cc(C)c2c(=O)[nH]c(SCC(=O)Nc3cccc(S(=O)(=O)N(C)C)c3)nc2n1 assigned_category=inactive
molecule=O=C1CCC/C=C\C[C@H]2C=CC(=O)/C2=C/C[C@H](C/C=C\CC(F)(F)F)O1 assigned_category=active
molecule=COc1cc(-c2cc(/C=C3\CCCCC3=O)[nH]n2)cc(OC)c1OC assigned_category=inactive
molecule="COc1cc(/C=C2\\CCCC3=C2N=C2SC(C)=NN2C3c2cc(OC)c(OC)c(OC)c2)cc(OC)c1OC (stereo not drawn)" assigned_category=active
molecule=COc1ncc(-c2ccc3ncnc(Nc4cccc(Cl)c4)c3c2)cc1NS(=O)(=O)CCN1CCOCC1 assigned_category=inactive
